// provenance: patent US7101878B1

molecular target: human GnRH receptor (Homo sapiens); construct: expressed in transfected cells; host or cells: HEK 293 (hGnRH-R/293, from Dr. Stuart Sealfon); test: Radioligand binding, 125I-GnRH-A displacement, membranes of HEK 293 cells with human GnRH receptor; conditions: 1 h, substrate remaining; 10 uM compound; closer to zero = closer to 100% inhibition; read-out: S%R 10 uM hGnRHR
Sequence (P30968 whole entry): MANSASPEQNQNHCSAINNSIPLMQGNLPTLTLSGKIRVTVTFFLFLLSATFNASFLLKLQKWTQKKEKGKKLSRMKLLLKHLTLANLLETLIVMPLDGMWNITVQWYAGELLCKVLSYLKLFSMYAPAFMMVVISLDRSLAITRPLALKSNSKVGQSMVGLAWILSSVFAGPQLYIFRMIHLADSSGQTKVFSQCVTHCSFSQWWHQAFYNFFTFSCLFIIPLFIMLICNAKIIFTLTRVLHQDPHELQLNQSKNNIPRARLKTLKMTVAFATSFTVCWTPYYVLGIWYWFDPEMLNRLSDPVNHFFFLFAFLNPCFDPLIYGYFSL
MEASUREMENT KIND: remaining activity at 10 µM (%)
Give the quantity in %, number only.

Lookup: Return reported remaining activity at 10 µM; argument: Cc1cc2c(cc1Cc1ccc(C(=O)Nc3nc[nH]n3)o1)C(C)(C)CCC2(C)C
Found: 27

Lookup: What do we get for Cc1cc2c(cc1Cc1ccc(C(=O)Nc3ccc(CO)cc3)o1)C(C)(C)CCC2(C)C ?
Found: 17

Lookup: What do we get for COC(=O)c1cc(OC)c(OC)c(OO)c1NC(=O)c1ccc(Cc2cc3c(cc2C)C(C)(C)CCC3(C)C)o1 ?
Found: 27

Turning now to a further record.
Lookup: Return reported remaining activity at 10 µM; argument: CC(=O)c1cccc(NC(=O)c2ccc(Cc3cc4c(cc3C)C(C)(C)CCC4(C)C)o2)c1
Found: 0

* * *

assay: Metabolism rate, pmol/min/mg at 1 μM, human; format: in vitro ADME; settings: 1 μM compound
Classification field: condition met = Human pmol/min/mg 1 μM at or over 300 pmol/min/mg; condition not met = Human pmol/min/mg 1 μM under 300 pmol/min/mg.

The following compounds have reported results that may help.
Lookup: Please tell me: is the compound COC(=O)c1ccc(OC)c(NC(=O)c2ccc(Cc3cc4c(cc3C)C(C)(C)CCC4(C)C)o2)c1 at or over 300 pmol/min/mg in terms of Human pmol/min/mg 1 μM?
Found: condition not met

Lookup: What do we get for Cc1ccc(C(C)(C)C)cc1Cc1ccc(C(=O)NCc2cccc(CNc3ccnc(NC[C@H]4CCCO4)n3)c2)o1 ?
Found: condition met

Lookup: What do we get for Cc1cc2c(cc1Cc1ccc(C(=O)Nc3ccc4[nH]ccc4c3)o1)C(C)(C)CCC2(C)C ?
Found: condition not met

Lookup: What do we get for COc1cccc(OC)c1NC(=O)c1ccc(Cc2c(C)cc(C)cc2C)o1 ?
Found: condition met

Lookup: What do we get for Cc1cc2c(cc1Cc1ccc(C(=O)NCc3cccc(CNc4ncc(C)c(NCC5CCCO5)n4)c3)o1)C(C)(C)CCC2(C)C (centres unmarked) ?
Found: condition not met

Lookup: What do we get for Cc1cccc(CNC(=O)c2ccc(Cc3cc4c(cc3C)C(C)(C)CCC4(C)C)o2)c1 ?
Found: condition not met

Lookup: What do we get for COc1cccc(OC)c1NC(=O)c1ccc(Cc2c(C)cc(C)c(Br)c2C)o1 ?
Found: condition met

Lookup: What do we get for Cc1cc2c(cc1Cc1ccc(C(=O)NCc3cccc(CNc4nccc(NC[C@@H]5CCCO5)n4)c3)o1)C(C)(C)CCC2(C)C ?
Found: condition not met

More entries:
Lookup: Please tell me: is the compound Cc1cc2c(cc1Cc1ccc(C(=O)NCc3cccc(CNc4ccnc(NC[C@@H]5CCCO5)n4)c3)o1)C(C)(C)CCC2(C)C [Compound 136] at or over 300 pmol/min/mg in terms of Human pmol/min/mg 1 μM?
Found: condition not met

Lookup: What do we get for COc1cc(C)c(Cl)c(C)c1Cc1ccc(C(=O)Nc2c(OC)cccc2OC)o1 ?
Found: condition met

Lookup: What do we get for CCOc1cccc(OCC)c1NC(=O)c1ccc(Cc2cc3c(cc2C)C(C)(C)CCC3(C)C)o1 ?
Found: condition met

Lookup: What do we get for Cc1cc2c(cc1Cc1ccc(C(=O)NCc3cccc(CNc4nccc(N5CCOCC5)n4)c3)o1)C(C)(C)CCC2(C)C ?
Found: condition met

Lookup: What do we get for COc1cc(OC)c(NC(=O)c2ccc(Cc3cc4c(cc3C)C(C)(C)CCC4(C)C)o2)c(OC)c1 ?
Found: condition met

Lookup: What do we get for COc1cc2c(cc1Cc1ccc(C(=O)Nc3c(OC)cc(OC)c(C#N)c3OC)o1)C(C)(C)CCC2(C)C ?
Found: condition met

Lookup: What do we get for Cc1cc2c(cc1Cc1ccc(C(=O)NCc3cccc(CNc4ccnc(NC[C@@H]5CCCO5)n4)c3)o1)C(C)(C)CCC2(C)C [Compound 176] ?
Found: condition not met

Lookup: What do we get for COc1cc(OC)c(NC(=O)c2ccc(Cc3cc4c(cc3C)C(C)(C)CCC4(C)C)o2)c(OC)c1C#N ?
Found: condition met

Lookup: What do we get for COC(=O)[C@H]1CC[C@H](CNC(=O)c2ccc(Cc3cc4c(cc3C)C(C)(C)CCC4(C)C)o2)CC1 ?
Found: condition met
